Just for reference, paper PMC6572064 is where these values come from.

- System: CAPAN-1 (a BRCA-2-mutated pancreatic cancer cell line)
- TEST: Cell proliferation assay, three-day, CellTiter-Glo, CAPAN-1
- Assay type: cell-based
- ASSAY_CONTEXT: Homo sapiens; CAPAN-1, Conc. 33.33 uM, replicate 2; read-out: Inh % 2
Is inhibition at 33.33 µM at least 10%? Then TRUE. If not, FALSE.

Completed entries (count: 3):
| COMPOUND | CLASS_LABEL |
| --- | --- |
| NC(=O)c1cccc2[nH]c(C3CCN(CCNC(=O)c4ccccc4)C3)nc12 (centres unmarked) [Compound 5co] | TRUE |
| NCCN1CCC(c2nc3c(C(N)=O)cccc3[nH]2)C1 (centres unmarked) [Compound 5cm] | FALSE |
| NC(=O)c1cccc2[nH]c(C3CCN(CCCNC(=O)c4ccccc4)C3)nc12 (centres unmarked) [Compound 5cn] | FALSE |

q: Hi, just wondering whether C[C@]1(c2nc3c(C(N)=O)cccc3[nH]2)CCCN1 [pc1, Veliparib, reference compound] shows inhibition at 33.33 µM of 10% or higher.
a: TRUE

q: Hi, just wondering whether NC(=O)c1cccc2[nH]c(C3CCN(CC(=O)Nc4ccccc4)C3)nc12 (centres unmarked) [Compound 5ca] shows inhibition at 33.33 µM of 10% or higher.
a: TRUE

q: Hi, just wondering whether NC(=O)c1cccc2[nH]c(C3CCN(CCC(=O)c4ccccc4)C3)nc12 (centres unmarked) [Compound 5cp] shows inhibition at 33.33 µM of 10% or higher.
a: TRUE

q: Hi, just wondering whether NCCCN1CCC(c2nc3c(C(N)=O)cccc3[nH]2)C1 (centres unmarked) [Compound 5cl] shows inhibition at 33.33 µM of 10% or higher.
a: FALSE

q: Hi, just wondering whether O=C(c1cc(Cc2n[nH]c(=O)c3ccccc23)ccc1F)N1CCN(C(=O)C2CC2)CC1 [pc2, Olaparib, reference compound] shows inhibition at 33.33 µM of 10% or higher.
a: TRUE

---

- System: CAPAN-1 (a BRCA-2-mutated pancreatic cancer cell line)
- TEST: Cell proliferation assay, three-day, CellTiter-Glo, CAPAN-1
- Format: cell-based
- ASSAY_CONTEXT: Homo sapiens; CAPAN-1, 100.00 uM, replicate 2; read-out: Inh % 2
MEASURED_PROPERTY: inhibition at 100 µM

| COMPOUND | inhibition at 100 µM |
| --- | --- |
| NC(=O)c1cccc2[nH]c(C3CCN(CCC(=O)Nc4ccccc4)C3)nc12 (stereo not shown) | 32% |
| NC(=O)c1cccc2[nH]c(C3CCN(CCCNc4ccccc4)C3)nc12 (stereo not shown) | 35.5% |
| NC(=O)c1cccc2[nH]c(C3CCN(CCCN4C(=O)c5ccccc5C4=O)C3)nc12 (stereo not shown) | 4.5% |

q: Quote inhibition at 100 µM reported for NC(=O)c1cccc2[nH]c(C3CCN(CC(O)c4ccccc4)C3)nc12 (stereo not shown) please.
a: 21.1%

---

- TARGET_OR_SYSTEM: PARP-1 (Homo sapiens)
- Construct: purchased BPS Bioscience 80569
- Sequence (P09874 whole entry): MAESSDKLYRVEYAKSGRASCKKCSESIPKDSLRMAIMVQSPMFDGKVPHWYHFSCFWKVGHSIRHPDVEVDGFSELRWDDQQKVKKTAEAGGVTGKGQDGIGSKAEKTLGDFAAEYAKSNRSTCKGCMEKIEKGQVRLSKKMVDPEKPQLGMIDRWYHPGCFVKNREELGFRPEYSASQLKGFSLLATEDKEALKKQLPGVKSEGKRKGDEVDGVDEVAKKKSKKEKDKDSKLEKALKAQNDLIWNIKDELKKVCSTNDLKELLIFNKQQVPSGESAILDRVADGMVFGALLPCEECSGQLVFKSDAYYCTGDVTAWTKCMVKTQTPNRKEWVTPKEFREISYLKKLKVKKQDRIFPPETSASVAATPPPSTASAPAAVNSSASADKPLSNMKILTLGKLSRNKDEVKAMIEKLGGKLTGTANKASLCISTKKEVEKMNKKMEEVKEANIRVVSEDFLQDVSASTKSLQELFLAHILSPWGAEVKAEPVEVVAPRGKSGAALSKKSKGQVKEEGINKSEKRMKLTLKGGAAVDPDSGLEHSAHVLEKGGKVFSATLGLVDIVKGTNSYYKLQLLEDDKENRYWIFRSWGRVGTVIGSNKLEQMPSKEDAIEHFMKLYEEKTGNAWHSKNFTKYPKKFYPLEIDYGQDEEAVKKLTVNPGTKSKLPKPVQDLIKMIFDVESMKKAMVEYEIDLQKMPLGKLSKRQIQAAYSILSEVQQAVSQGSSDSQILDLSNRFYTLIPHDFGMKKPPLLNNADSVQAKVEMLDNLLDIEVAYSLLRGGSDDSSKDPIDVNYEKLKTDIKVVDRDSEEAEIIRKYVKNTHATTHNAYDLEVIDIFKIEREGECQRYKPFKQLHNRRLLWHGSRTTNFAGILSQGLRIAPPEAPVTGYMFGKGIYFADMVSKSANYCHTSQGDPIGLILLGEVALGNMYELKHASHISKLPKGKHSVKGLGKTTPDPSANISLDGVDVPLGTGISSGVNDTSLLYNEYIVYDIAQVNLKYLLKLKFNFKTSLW
- TEST: PARP-1 inhibition assay (PARP-1 Chemiluminescent Assay Kit, BPS Bioscience)
- Format: biochemical
- ASSAY_CONTEXT: 10 nM compound, supplement sheet; read-out: 10 nM inhibition% PAPR-1
Categorize each record by its inhibition at 0.01 µM using low (below 20%), middle (20% to below 40%), high (40% or more)

Completed entries (count: 10):
| COMPOUND | CLASS_LABEL |
| --- | --- |
| NC(=O)c1cccc2[nH]c(C3CCN(CCCC(=O)c4ccccc4)C3)nc12 (stereo not drawn) | high |
| NCCCN1CCC(c2nc3c(C(N)=O)cccc3[nH]2)C1 (stereo not drawn) | middle |
| NCCN1CCC(c2nc3c(C(N)=O)cccc3[nH]2)C1 (stereo not drawn) | middle |
| NC(=O)c1cccc2[nH]c(C3CCN(CCCN4C(=O)c5ccccc5C4=O)C3)nc12 (stereo not drawn) | middle |
| NC(=O)c1cccc2[nH]c(C3CCN(CC(=O)c4ccccc4)C3)nc12 (stereo not drawn) | low |
| NC(=O)c1cccc2[nH]c(C3CCN(CCN4C(=O)c5ccccc5C4=O)C3)nc12 (stereo not drawn) | low |
| NC(=O)c1cccc2[nH]c(C3CCN(CCCNc4ccccc4)C3)nc12 (stereo not drawn) | high |
| NC(=O)c1cccc2[nH]c(C3CCN(CC(=O)Nc4ccccc4)C3)nc12 (stereo not drawn) | low |
| NC(=O)c1cccc2[nH]c(C3CCN(CCC(=O)c4ccccc4)C3)nc12 (stereo not drawn) | high |
| NC(=O)c1cccc2[nH]c(C3CCN(CC(O)c4ccccc4)C3)nc12 (stereo not drawn) | low |

q: Any idea which band NC(=O)c1cccc2[nH]c(C3CCN(CCCNC(=O)c4ccccc4)C3)nc12 (stereo not drawn) is in?
a: low

q: Any idea which band NC(=O)c1cccc2[nH]c(C3CCN(CCC(=O)c4ccc(Cl)cc4)C3)nc12 (stereo not drawn) is in?
a: high

q: Any idea which band COc1ccc(C(=O)CCN2CCC(c3nc4c(C(N)=O)cccc4[nH]3)C2)cc1 (stereo not drawn) is in?
a: high

q: Any idea which band NC(=O)c1cccc2[nH]c(C3CCN(CCNC(=O)c4ccccc4)C3)nc12 (stereo not drawn) is in?
a: middle

---

- Tested on: CAPAN-1 (a BRCA-2-mutated pancreatic cancer cell line)
- TEST: Cell proliferation assay, three-day, CellTiter-Glo, CAPAN-1
- Format: cell-based
- ASSAY_CONTEXT: Homo sapiens; CAPAN-1, Conc. 0.41 uM, replicate 1; read-out: Inh % 1
MEASURED_PROPERTY: inhibition at 0.41 µM (%)
Answers are plain numbers, in %.

The examples below pair each entry with its known result.
| MOLECULE | RECORDED_RESULT |
| --- | --- |
| NC(=O)c1cccc2[nH]c(C3CCN(CCNC(=O)c4ccccc4)C3)nc12 (stereo not shown) [Compound 5co] | 7.1 |
| NCCN1CCC(c2nc3c(C(N)=O)cccc3[nH]2)C1 (stereo not shown) [Compound 5cm] | 4 |
| NC(=O)c1cccc2[nH]c(C3CCN(CCC(=O)c4ccccc4)C3)nc12 (stereo not shown) [Compound 5cp] | -7.8 |
| NC(=O)c1cccc2[nH]c(C3CCN(CCCNC(=O)c4ccccc4)C3)nc12 (stereo not shown) [Compound 5cn] | -2.8 |
| NCCCN1CCC(c2nc3c(C(N)=O)cccc3[nH]2)C1 (stereo not shown) [Compound 5cl] | 1.3 |
| O=C(c1cc(Cc2n[nH]c(=O)c3ccccc23)ccc1F)N1CCN(C(=O)C2CC2)CC1 [pc2, Olaparib, reference compound] | 4.3 |

Turning now to a further record.
q: Answer with inhibition at 0.41 µM of C[C@]1(c2nc3c(C(N)=O)cccc3[nH]2)CCCN1 [pc1, Veliparib, reference compound] measured for CAPAN-1 (a BRCA-2-mutated pancreatic cancer cell line).
a: 7.8

---

- Test system: MDA-MB-436 (a BRCA-1-mutated breast cancer cell line)
- TEST: Cell proliferation assay, three-day, CellTiter-Glo, MDA-MB-436
- Type: cell-based
- ASSAY_CONTEXT: MDA-MB-436; curve fit on Log (uM) concentrations
MEASURED_PROPERTY: LogIC50

The examples below pair each entry with its known result.
| MOLECULE | TARGET_OR_SYSTEM | LogIC50 |
| --- | --- | --- |
| NC(=O)c1cccc2[nH]c(C3CCN(CCC(O)c4ccccc4)C3)nc12 (stereo not shown) [Compound 5cg] | MDA-MB-436 (a BRCA-1-mutated breast cancer cell line) | 1.87 |
| COc1ccc(C(=O)CCN2CCC(c3nc4c(C(N)=O)cccc4[nH]3)C2)cc1 (stereo not shown) [Compound 5ci] | MDA-MB-436 (a BRCA-1-mutated breast cancer cell line) | ~ 1.587 |
| NC(=O)c1cccc2[nH]c(C3CCN(CC(=O)c4ccccc4)C3)nc12 (stereo not shown) [Compound 5cd] | MDA-MB-436 (a BRCA-1-mutated breast cancer cell line) | 1.74 |

// batch mode: one LogIC50 value per listed entry
1. NC(=O)c1cccc2[nH]c(C3CCN(CCCC(=O)c4ccccc4)C3)nc12 (stereo not shown) [Compound 5cc]
2. NC(=O)c1cccc2[nH]c(C3CCN(CC(O)c4ccccc4)C3)nc12 (stereo not shown) [Compound 5cf]

a:
[1.504, 1.786]

// batch mode: one LogIC50 value per listed entry
1. NC(=O)c1cccc2[nH]c(C3CCN(CCC(=O)c4ccc(Cl)cc4)C3)nc12 (stereo not shown) [Compound 5cj]
2. NC(=O)c1cccc2[nH]c(C3CCN(CCC(=O)Nc4ccccc4)C3)nc12 (stereo not shown) [Compound 5cb]

a:
[1.241, 1.956]
